System under test: BRM (Homo sapiens, UniProt P51531)
Construct: made in house; host or cells: High Five insect cells
Sequence (P51531 whole entry): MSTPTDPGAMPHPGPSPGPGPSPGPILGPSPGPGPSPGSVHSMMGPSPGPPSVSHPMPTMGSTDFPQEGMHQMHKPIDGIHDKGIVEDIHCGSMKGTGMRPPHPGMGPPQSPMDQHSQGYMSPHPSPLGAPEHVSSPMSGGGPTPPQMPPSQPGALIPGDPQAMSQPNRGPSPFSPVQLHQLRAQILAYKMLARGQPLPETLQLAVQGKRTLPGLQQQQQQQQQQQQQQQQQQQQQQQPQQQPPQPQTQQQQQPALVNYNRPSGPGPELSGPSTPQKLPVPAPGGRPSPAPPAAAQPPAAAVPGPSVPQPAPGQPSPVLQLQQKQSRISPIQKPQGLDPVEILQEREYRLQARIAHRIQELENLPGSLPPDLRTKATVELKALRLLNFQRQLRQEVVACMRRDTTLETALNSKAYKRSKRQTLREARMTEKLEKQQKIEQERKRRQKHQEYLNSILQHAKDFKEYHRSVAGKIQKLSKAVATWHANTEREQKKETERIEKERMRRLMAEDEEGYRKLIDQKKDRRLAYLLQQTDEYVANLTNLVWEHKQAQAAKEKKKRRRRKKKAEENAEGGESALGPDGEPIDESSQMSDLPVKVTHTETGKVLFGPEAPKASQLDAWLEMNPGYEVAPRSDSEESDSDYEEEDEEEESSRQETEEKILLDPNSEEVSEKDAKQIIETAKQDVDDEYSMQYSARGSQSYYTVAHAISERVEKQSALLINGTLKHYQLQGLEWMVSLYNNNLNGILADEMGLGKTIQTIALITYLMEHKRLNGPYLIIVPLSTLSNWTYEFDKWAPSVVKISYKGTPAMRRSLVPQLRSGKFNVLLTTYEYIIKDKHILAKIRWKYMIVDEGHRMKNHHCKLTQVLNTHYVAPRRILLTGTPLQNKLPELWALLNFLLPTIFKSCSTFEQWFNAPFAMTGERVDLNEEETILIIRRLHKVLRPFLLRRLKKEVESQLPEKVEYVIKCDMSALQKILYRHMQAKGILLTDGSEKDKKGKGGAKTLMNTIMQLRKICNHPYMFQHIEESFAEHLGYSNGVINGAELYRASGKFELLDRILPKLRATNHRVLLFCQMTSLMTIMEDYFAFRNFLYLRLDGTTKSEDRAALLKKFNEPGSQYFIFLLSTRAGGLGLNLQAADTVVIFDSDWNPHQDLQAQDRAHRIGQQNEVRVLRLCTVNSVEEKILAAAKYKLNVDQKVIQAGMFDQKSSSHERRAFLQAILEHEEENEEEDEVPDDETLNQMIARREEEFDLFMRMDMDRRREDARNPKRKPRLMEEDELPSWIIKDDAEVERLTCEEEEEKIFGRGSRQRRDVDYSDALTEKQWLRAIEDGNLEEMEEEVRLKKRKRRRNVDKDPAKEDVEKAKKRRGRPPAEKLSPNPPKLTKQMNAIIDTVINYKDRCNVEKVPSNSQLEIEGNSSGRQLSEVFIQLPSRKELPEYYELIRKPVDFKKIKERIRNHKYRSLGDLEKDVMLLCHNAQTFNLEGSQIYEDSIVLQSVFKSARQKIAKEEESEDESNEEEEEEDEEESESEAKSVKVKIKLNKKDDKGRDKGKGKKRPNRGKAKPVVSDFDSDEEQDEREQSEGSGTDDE
Protocol summary: ATPase catalytic activity of BRM, ADP-Glo in vitro biochemical assay
Run conditions: ADP-Glo ATPase assay, 30 nM BRM, 400 μM ATP
Method: The ATPase catalytic activity of BRM or BRG-1 was measured by an in vitro biochemical assay using ADP-Glo™ (Promega, V9102). The ADP-Glo™ kinase assay is performed in two steps once the reaction is complete. The first step is to deplete any unconsumed ATP in the reaction. The second step is to convert the reaction product ADP to ATP, which will be utilized by the luciferase to generate luminesce and be detected by a luminescence reader, such as Envision. […]
Readout: IC50 (nM)

Illustrative cases are given below, each with its answer.
O=C(NCc1cc2cc(-c3cccc(N4CCC4)n3)ccc2cn1)c1ccc2c(c1)S(=O)(=O)CCOC2    16.1
O=C(NCc1cc2cc(N3CCOc4cc(N5CCOCC5)cnc43)ccc2cn1)c1ccc2c(c1)S(=O)(=O)CCOC2    7.4
C[C@@H]1CN(c2cccc(-c3ccc4nnc(CNC(=O)c5ccc6c(c5)S(=O)(=O)CCOC6)cc4c3)n2)C[C@H](C)O1    3
O=C(NCc1cc2nc(N3CCC4(CCC4)c4cccnc43)ccc2cn1)c1ccc2c(c1)S(=O)(=O)CCOC2    40.2
C[C@@H]1CN(c2nc(-c3ccc4cnc(CNC(=O)c5ccc6c(c5)S(=O)(=O)CCOC6)cc4n3)ccc2F)C[C@H](C)O1    6
C[C@@H]1CN(c2cccc(-c3ccc4cnc(CNC(=O)c5ccc6c(c5)S(=O)(=O)[C@H](C)COC6)cc4n3)n2)C[C@H](C)O1    36.7
C[C@@H]1CN(c2cccc(-c3ccc4cnc(CNC(=O)c5ccc6c(c5)S(=O)(=O)CCOC6)cc4n3)n2)C[C@H](C)O1    4.2
COC[C@H](C)Nc1cccc(-c2ccc3cnc(CNC(=O)c4ccc(C(F)F)c(S(C)(=O)=O)c4)cc3n2)n1    956

1. O=C(NCc1cc2nc(N3CCCc4cnccc43)ccc2cn1)c1ccc2c(c1)S(=O)(=O)CCOC2
2. COCCN(C)c1cccc(-c2ccc3cnc(CNC(=O)c4cc(F)c5c(c4)S(=O)(=O)CCOC5)cc3n2)n1
INPUT: Kindly identify which of 1 and 2 has the larger recorded IC50 value. Give the label under which the chosen entry appears.
OUTPUT: 1

A. C[C@@]1(c2cccc(-c3ccc4cnc(CNC(=O)c5ccc6c(c5)S(=O)(=O)CCOC6)cc4n3)n2)CC1(F)F
B. O=C(NCc1cc2nc(-c3cn(C4COC4)nc3C3CC3)ccc2cn1)c1ccc2c(c1)S(=O)(=O)CCOC2
INPUT: Lower IC50: A or B ? Give the label under which the chosen entry appears.
OUTPUT: B

a. COc1cc(C(F)F)ccc1-c1ccc2cnc(CNC(=O)c3ccc4c(c3)S(=O)(=O)CCOC4)cc2n1
b. O=C(NCc1cc2nc(-c3cccc(OC(F)F)c3)ccc2cn1)c1ccc2c(c1)S(=O)(=O)CCOC2
INPUT: Kindly identify which of a and b has the larger recorded IC50 value. Give the label under which the chosen entry appears.
OUTPUT: b
(b: 73.8 nM, a: 24.9 nM)

###

System under test: BRM (Homo sapiens, UniProt P51531)
Construct: made in house; host or cells: High Five insect cells
Protocol summary: ATPase catalytic activity of BRM, ADP-Glo in vitro biochemical assay
Run conditions: selectivity ratio BRG1 IC50 / BRM IC50
Readout: Ratio* (BRG1 IC50 (μM) divided by BRM IC50 (μM))

CN(c1cccc(-c2ccc3cnc(CNC(=O)c4ccc5c(c4)S(=O)(=O)CCOC5)cc3n2)n1)C1CC1 [Compound 94]    9.02
C[C@@H]1CN(c2cccc(-c3ccc4cnc(CNC(=O)c5cc(F)c6c(c5)S(=O)(=O)CCOC6)cc4n3)n2)C[C@H](C)O1 [Compound 240]    3.66
O=C(NCc1cc2nc(-c3cccc(C4CC4)n3)ccc2cn1)c1cnc2c(c1)S(=O)(=O)CCOC2 [Compound 204]    12.01
C[C@H]1CN(c2cccc(-c3ccc4cnc(CNC(=O)c5ccc(Cl)c(S(C)(=O)=O)c5)cc4n3)n2)C[C@H](C)O1 [Compound 179]    11.49

a. COc1nn([C@H]2C[C@H](F)C2)cc1-c1ccc2cnc(CNC(=O)c3ccc4c(c3)S(=O)(=O)CCOC4)cc2n1 [Compound 152]
b. COCCN1CCCc2c(-c3ccc4cnc(CNC(=O)c5ccc6c(c5)S(=O)(=O)CCOC6)cc4n3)cccc21 [Compound 84]
c. CC1COCc2ccc(C(=O)NCc3cc4nc(-c5cccc(N6CCC6)n5)ccc4cn3)cc2S1(=O)=O (single isomer, unassigned) [Compound 199]
INPUT: Order these by Ratio* (BRG1 IC50 (μM) divided by BRM IC50 (μM)), descending, and give the full ranking. Answer format: the labels, in the requested order.
OUTPUT: a, c, b

Cited source for all entries: patent US20230416248A1
